Biological target: Glucocorticoid receptor, Homo sapiens (UniProt P04150)
Sequence (P04150 as listed by the source): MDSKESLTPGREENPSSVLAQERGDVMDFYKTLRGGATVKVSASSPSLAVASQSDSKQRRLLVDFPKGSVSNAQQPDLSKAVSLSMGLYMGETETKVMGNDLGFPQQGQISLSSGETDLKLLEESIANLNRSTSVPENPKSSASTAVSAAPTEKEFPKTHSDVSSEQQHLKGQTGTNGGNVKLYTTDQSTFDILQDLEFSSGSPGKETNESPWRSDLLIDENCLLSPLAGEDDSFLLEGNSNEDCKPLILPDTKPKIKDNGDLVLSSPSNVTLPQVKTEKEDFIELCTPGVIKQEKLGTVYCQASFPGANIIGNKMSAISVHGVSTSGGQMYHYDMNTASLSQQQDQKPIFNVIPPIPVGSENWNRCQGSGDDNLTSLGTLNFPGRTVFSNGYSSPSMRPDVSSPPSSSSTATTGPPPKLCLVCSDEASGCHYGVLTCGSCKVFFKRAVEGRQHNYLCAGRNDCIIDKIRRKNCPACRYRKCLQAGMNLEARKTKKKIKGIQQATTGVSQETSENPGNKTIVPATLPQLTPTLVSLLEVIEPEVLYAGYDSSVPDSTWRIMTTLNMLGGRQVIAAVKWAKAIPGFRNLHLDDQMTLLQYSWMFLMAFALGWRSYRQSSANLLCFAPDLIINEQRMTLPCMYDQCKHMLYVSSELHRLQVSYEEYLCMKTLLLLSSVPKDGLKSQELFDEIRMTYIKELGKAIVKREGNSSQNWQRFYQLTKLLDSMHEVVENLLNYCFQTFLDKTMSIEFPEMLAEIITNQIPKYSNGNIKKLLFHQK
Assay: PubChem AID 720725
Hit rate of the full screen: of about 10,000 compounds, about 460 (4.6%) were called active. This excerpt belongs to a sample that is enriched for actives.
experimental-readout: outcome

Please review the entries below; each comes with its answer.
>  <compound>
Nc1ncnc2c1ncn2[C@@H]1O[C@@H]2COP(=O)(O)O[C@H]2[C@H]1O

>  <outcome>
inactive

$$$$
>  <compound>
C=CCNCC=C

>  <outcome>
inactive

$$$$
>  <compound>
O=c1[nH]ncc2ccccc12

>  <outcome>
inactive

$$$$
>  <compound>
NC(CO)(CO)CO

>  <outcome>
inactive

$$$$

Measured outcome of `Cc1cc(=O)[nH]c(C(C)C)n1` : inactive

Measured outcome of `CCCCC/C(C=O)=C\c1ccccc1` : inactive

Measured outcome of `CCN(CC)C(=O)[C@]1(c2ccccc2)C[C@@H]1CN.Cl` : inactive

Measured outcome of `CC(=O)CC(=O)c1ccccc1` : inactive

Measured outcome of `CCCC[n+]1cccc(C)c1.O=S(=O)([O-])C(F)(F)F` : inactive

Measured outcome of `FC(F)(F)COCC(F)(F)F` : inactive
